Origin of measurements: ChEMBL document CHEMBL4715827

System: IGROV1-R10
Assay: Pro-apoptotic activity in human IGROV1-R10 cells transfected with Bcl-xL siRNA assessed as increase in cleaved PARP expression at 25 uM measured after 24 hrs by Western blot analysis
Assay type: functional, cell-based
Activity calls are given as the source filed them. The calls are words filed in the database; no cut-off is given here.
readout name: Activity

compound string | Activity
Cc1cc(-c2ncc(-c3cccc(CC#N)c3)cc2/C=C/c2ccccc2)cnc1-c1cccnc1 | Active
Cc1cc(-c2ncc(-c3cccnc3)cc2/C=C/c2ccccc2)cnc1-c1cccc(CC#N)c1 | Active
Cc1cc(-c2ncc(-c3cccnc3)cc2/C=C/c2ccccc2)cnc1-c1cccc(C/C(N)=N/O)c1 | Active
Cc1cc(-c2ncc(-c3cccnc3)cc2/C=C/c2ccccc2)cnc1-c1cccc(CC(=O)O)c1 | Active
Cc1cc(-c2ncc(-c3cccc(CC(=O)O)c3)cc2/C=C/c2ccccc2)cnc1-c1cccnc1 | Active

Task: # get_value(readout= Activity, system= IGROV1-R10) for Cc1cc(-c2ncc(-c3cccc(O)c3)cc2/C=C/c2ccccc2)cnc1-c1cccnc1
Result: Active

Task: # get_value(readout= Activity, system= IGROV1-R10) for Cc1cc(-c2ncc(-c3cccnc3)cc2/C=C/c2ccccc2)cnc1-c1cccnc1
Result: Active

Task: # get_value(readout= Activity, system= IGROV1-R10) for Cc1cc(-c2ncc(-c3cccnc3)cc2/C=C/c2ccccc2)cnc1-c1cccc(O)c1
Result: Active

Task: # get_value(readout= Activity, system= IGROV1-R10) for Cc1cc(-c2ncc(-c3cccc(C/C(N)=N/O)c3)cc2/C=C/c2ccccc2)cnc1-c1cccnc1
Result: Active
